// Kd lookup, one value per entry
MEASURED_ON: T1, GIRK1/4 inward-rectifier K+ channel, P63251
T1 chain 1: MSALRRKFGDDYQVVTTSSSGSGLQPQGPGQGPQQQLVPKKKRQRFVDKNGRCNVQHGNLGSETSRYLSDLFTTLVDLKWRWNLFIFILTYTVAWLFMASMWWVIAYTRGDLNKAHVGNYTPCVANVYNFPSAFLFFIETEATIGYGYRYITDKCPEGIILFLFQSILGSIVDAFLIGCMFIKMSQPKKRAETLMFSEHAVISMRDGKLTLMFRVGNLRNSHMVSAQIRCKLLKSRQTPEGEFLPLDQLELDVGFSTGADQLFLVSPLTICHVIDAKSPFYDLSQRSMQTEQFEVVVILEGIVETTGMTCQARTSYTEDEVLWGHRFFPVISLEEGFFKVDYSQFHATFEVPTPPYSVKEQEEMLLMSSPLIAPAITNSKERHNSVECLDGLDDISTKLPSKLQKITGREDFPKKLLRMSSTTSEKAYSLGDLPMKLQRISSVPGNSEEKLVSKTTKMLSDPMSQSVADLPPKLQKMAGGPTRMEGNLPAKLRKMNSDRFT
T1 chain 2: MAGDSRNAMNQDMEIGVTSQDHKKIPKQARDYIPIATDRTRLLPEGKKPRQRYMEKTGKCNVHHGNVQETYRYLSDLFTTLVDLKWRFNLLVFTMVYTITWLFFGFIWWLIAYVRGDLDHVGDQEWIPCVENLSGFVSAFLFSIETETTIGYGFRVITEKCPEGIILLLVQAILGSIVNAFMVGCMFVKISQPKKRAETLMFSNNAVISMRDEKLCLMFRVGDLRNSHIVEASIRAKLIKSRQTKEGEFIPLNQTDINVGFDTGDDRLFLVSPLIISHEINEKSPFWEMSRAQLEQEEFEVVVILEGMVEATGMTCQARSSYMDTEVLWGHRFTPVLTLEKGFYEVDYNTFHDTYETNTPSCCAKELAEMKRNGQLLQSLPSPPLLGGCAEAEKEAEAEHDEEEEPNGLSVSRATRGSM
Express the reported value numerically, then name its unit.

Given the entry ALCNCNRIIIPHMCWKKCGKK (modifications not checked) [synthetic tertiapin] , report its measured Kd.
8.6 nM

Others:
Given the entry ALCNCNRIIIPHMCWKKCGKK (modifications not checked) [native tertiapin] , report its measured Kd.
8.2 nM
